Where these numbers come from: ChEMBL document CHEMBL3758085

System: MDA-MB-231
ASSAY EXPLANATION: Antiproliferative activity against human MDA-MB-231 cells assessed as cell growth at 1 uM incubated for 3 days by 3H-thymidine incorporation assay relative to control
Format: functional
DETAILS: read-out: Activity
growth at 1 µM overview

RECORD SMILES	MEASUREMENT TARGET	growth at 1 µM, %
Cc1ccccc1NC(=O)c1sc2nc3c(cc2c1N)CCCCC3	MDA-MB-231	43
Nc1c(C(=O)Nc2cccc(C(F)(F)F)c2)sc2nc3c(cc12)CCC3	MDA-MB-231	100
Nc1c(C(=O)Nc2ccccc2)sc2nc3c(cc12)CCCCC3	MDA-MB-231	26
Nc1c(C(=O)Nc2cccc(Cl)c2)sc2nc3c(cc12)CCCCC3	MDA-MB-231	95
Nc1c(C(=O)Nc2ccc3ccccc3c2)sc2nc3c(cc12)CCCCC3	MDA-MB-231	118
O=c1c2sc3ncccc3c2ncn1-c1ccccc1	MDA-MB-231	107
Cc1c(Br)cccc1NC(=O)c1sc2nc3c(cc2c1N)CCC3	MDA-MB-231	16
Cc1ccc2nc3sc(C(=O)Nc4ccccc4)cc3cc2c1	MDA-MB-231	92
Cc1ccc2nc3sc(C(=O)Nc4ccccc4C)cc3cc2c1	MDA-MB-231	104
CCc1cccc(CC)c1NC(=O)c1sc2nc3c(cc2c1N)CCCC3	MDA-MB-231	115
Nc1c(C(=O)Nc2ccccc2Cl)sc2nc3c(c(C(F)(F)F)c12)CCCCCC3	MDA-MB-231	116
